- TESTED_SYSTEM: Protein kinase C epsilon type (Homo sapiens, UniProt Q02156)
- Sequence (Q02156 whole entry): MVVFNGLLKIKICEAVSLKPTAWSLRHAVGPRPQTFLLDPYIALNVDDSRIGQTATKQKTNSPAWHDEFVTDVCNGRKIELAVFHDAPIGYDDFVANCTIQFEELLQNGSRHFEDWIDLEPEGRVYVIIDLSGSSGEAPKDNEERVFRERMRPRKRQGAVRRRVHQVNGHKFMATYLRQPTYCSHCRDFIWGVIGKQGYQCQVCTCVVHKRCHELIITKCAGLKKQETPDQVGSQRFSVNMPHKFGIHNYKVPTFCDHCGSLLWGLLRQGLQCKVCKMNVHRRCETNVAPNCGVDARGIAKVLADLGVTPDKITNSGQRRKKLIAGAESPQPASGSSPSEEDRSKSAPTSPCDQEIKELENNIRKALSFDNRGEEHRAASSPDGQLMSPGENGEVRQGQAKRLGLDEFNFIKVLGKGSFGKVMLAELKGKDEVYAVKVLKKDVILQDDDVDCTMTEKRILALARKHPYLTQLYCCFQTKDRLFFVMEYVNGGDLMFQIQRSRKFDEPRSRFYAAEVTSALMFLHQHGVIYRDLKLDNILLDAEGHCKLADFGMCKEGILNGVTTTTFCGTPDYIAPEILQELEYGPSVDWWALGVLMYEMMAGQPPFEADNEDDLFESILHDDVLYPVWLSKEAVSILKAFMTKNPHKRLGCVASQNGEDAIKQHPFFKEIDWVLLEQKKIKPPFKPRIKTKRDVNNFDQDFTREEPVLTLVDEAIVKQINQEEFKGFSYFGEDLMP
- EXPERIMENT_DESCRIPTION: Displacement of [3H]PDBu from recombinant human PKC-epsilon after 5 mins by scintillation counting analysis in presence of phosphatidylserine
MEASURED_ATTRIBUTE: Ki (nM)
All answers are understood in nM, so give the number only.

// Ki (Protein kinase C epsilon type (Homo sapiens, UniProt Q02156)) for CCCC(CCC)C(=O)OCC1(CO)C/C(=C\c2ccc3ccn(C)c3c2)C(=O)O1 (stereo not given) = 8.08

Entry CCCC(CCC)C(=O)OCC1(CO)C/C(=C\c2cn(C)c3ccccc23)C(=O)O1 (stereo not given) , Protein kinase C epsilon type (Homo sapiens, UniProt Q02156) data, Ki value: 21.1

The reported Ki value, Protein kinase C epsilon type (Homo sapiens, UniProt Q02156), for CCCC(CCC)C(=O)OCC1(CO)C/C(=C\c2cccc3c2ccn3C)C(=O)O1 (stereo not given) reads 14.6

Sample CCCC(CCC)C(=O)OCC1(CO)C/C(=C\c2cccc3ccn(C)c23)C(=O)O1 (stereo not given) , system: Protein kinase C epsilon type (Homo sapiens, UniProt Q02156). Its Ki is 11.7

I looked up CCCC(CCC)C(=O)OCC1(CO)C/C(=C\c2ccc3c(ccn3C)c2)C(=O)O1 (stereo not given) and its Ki for Protein kinase C epsilon type (Homo sapiens, UniProt Q02156) was 2.17
